- subject-of-test: human CXCR3 (N-delta 4) (Homo sapiens, UniProt P49682)
- Construct: CD8 leader (N); Flag; expressed in transfected cells; membranes prepared
- Sequence (P49682 5-368 limits assumed): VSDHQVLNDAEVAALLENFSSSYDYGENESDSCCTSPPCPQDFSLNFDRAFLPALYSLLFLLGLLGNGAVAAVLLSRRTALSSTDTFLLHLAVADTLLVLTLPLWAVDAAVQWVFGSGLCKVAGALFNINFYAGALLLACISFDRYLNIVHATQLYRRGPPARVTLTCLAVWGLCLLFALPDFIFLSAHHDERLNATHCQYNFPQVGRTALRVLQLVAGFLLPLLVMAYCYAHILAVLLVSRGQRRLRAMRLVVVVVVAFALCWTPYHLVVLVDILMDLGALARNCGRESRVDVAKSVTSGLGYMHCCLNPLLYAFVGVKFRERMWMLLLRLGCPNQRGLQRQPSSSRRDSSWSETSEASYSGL
- experiment-notes: Human CXCR3 (N-delta 4) Scintillation Proximity Assay (SPA), [125I] IP-10 binding to Ba/F3-hCXCR3 membranes
- assay-conditions: IC50 rating, Table 1; read-out: IC50
# IC50 per entry
quantity-kind: IC50

molecule=CC[C@H]1CN(c2ncc(C(N)=O)nc2C)CCN1C1CCN(Cc2ccc(C(F)(F)F)cc2)CC1 quantity_kind=IC50 reading="< 25 nM"
molecule=CC[C@H]1CN(c2nc(N)c(C(=O)NC3CC3)nc2Cl)CCN1C1CCN(Cc2ccc(Cl)cc2OCCO)CC1 quantity_kind=IC50 reading="< 25 nM"
molecule=CC[C@H]1CN(c2nc(N)c(C(N)=O)nc2Cl)CCN1C1CCN(Cc2ccc(Cl)cc2S(=O)(=O)NC)CC1 quantity_kind=IC50 reading="> 100 nM"
molecule="CC[C@H]1CN(c2nc(N)c(C(=O)NC3CC3)nc2Cl)CCN1C1CCN(Cc2ccc(Cl)cc2)CC1O (stereo partly shown) [compound 95]" quantity_kind=IC50 reading="25 to 100 nM"
molecule=CNC(=O)c1nc(Cl)c(N2C[C@H](C)N(C3CCN(Cc4ccc(Cl)cc4F)CC3)C[C@H]2C)nc1N quantity_kind=IC50 reading="< 25 nM"
molecule=CC[C@H]1CN(c2ncc(C(N)=O)nc2OC)CCN1C1CCN(C(=O)c2ccc(Cl)cc2)CC1 quantity_kind=IC50 reading="> 100 nM"
molecule=CC[C@H]1CN(c2nc(N)c(C(N)=O)nc2Cl)CCN1C1CCN([C@@H](C(=O)NC)c2ccc(Cl)cc2)CC1 quantity_kind=IC50 reading="> 100 nM"
molecule=CC[C@H]1CN(c2nc(N)c(C(=O)NCCO)nc2Cl)CCN1C1CCN(Cc2ccc(Oc3ccc(F)cc3)cc2)CC1 quantity_kind=IC50 reading="< 25 nM"
molecule=CC[C@H]1CN(c2ncc(C(N)=O)nc2Cl)CCN1C1CCN(Cc2ccc(Cl)cc2[C@@H](O)C(N)=O)CC1 quantity_kind=IC50 reading="< 25 nM"
molecule=CC[C@H]1CN(c2ncc(C(=O)NC3CC3)nc2C)CCN1C1CCN([C@@H](CO)c2ccc(F)c(F)c2)CC1 quantity_kind=IC50 reading="< 25 nM"
molecule=CC[C@H]1CN(c2ncc(C(=O)NC)nc2C)CCN1C1CCN(C(=O)c2ccc(OC(F)(F)F)cc2)CC1 quantity_kind=IC50 reading="< 25 nM"
molecule=CC[C@H]1CN(c2ncc(C(=O)NC3CC3)nc2C)CCN1C1CCN(Cc2ccc(C)c(F)c2)CC1 quantity_kind=IC50 reading="< 25 nM"
molecule=CC[C@H]1CN(c2nc(N)c(C(=O)NCCNC(C)=O)nc2Cl)CCN1C1CCN(Cc2ccc(Cl)cc2)CC1 quantity_kind=IC50 reading="< 25 nM"
molecule=CC[C@H]1CN(c2ncc(C(=O)NC3CC3)nc2C)CCN1C1CCN(C(=O)c2ccc(C(F)(F)F)cc2)CC1 quantity_kind=IC50 reading="< 25 nM"
molecule=CC[C@H]1CN(c2nc(N)c(C(=O)NCCO)nc2Cl)CCN1C1CCN(Cc2ccc(Cl)cc2C(=O)OC)CC1 quantity_kind=IC50 reading="< 25 nM"
molecule=CC[C@H]1CN(c2nc(N)c(C(=O)NCCO)nc2Cl)CCN1C1CCN(Cc2ccc(Cl)cc2-c2nnn[nH]2)CC1 quantity_kind=IC50 reading="< 25 nM"
molecule=CC[C@H]1CN(c2nc(N)c(C(=O)N[C@H](C)CO)nc2Cl)CCN1C1CCN(C(=O)c2ccc(Cl)cc2)CC1 quantity_kind=IC50 reading="< 25 nM"
molecule=CC[C@H]1CN(c2nc(N)c(C(=O)OC)nc2Cl)CCN1C1CCN(Cc2ccc(Cl)cc2C#N)CC1 quantity_kind=IC50 reading="> 100 nM"
molecule=CC[C@H]1CN(c2nc(N)c(C(N)=O)nc2Cl)CCN1C1CCN(Cc2ccc(Cl)cc2[C@@H](O)C(N)=O)CC1 quantity_kind=IC50 reading="25 to 100 nM"
molecule="CC[C@H]1CN(c2nc(N)c(C(N)=O)nc2Cl)CCN1C1CCN(Cc2ccc(Cl)cc2C2CNC(=O)O2)CC1 (stereo partly shown)" quantity_kind=IC50 reading="< 25 nM"
molecule="CC[C@H]1CN(c2nc(N)c(C(N)=O)nc2Cl)CCN1C1CCN(Cc2ccc(Cl)cc2C2NC(=O)N(C)C2=O)CC1 (stereo partly shown)" quantity_kind=IC50 reading="> 100 nM"
molecule=CC[C@H]1CN(c2nc(N)c(C(=O)NCCN)nc2Cl)CCN1C1CCN(Cc2ccc(Cl)cc2)CC1 quantity_kind=IC50 reading="< 25 nM"
molecule=CC[C@H]1CN(c2nc(N)c(C(=O)NCCO)nc2Cl)CCN1C1CCN(Cc2ccc(-c3ccc(F)cc3)cc2)CC1 quantity_kind=IC50 reading="< 25 nM"
molecule=CC[C@H]1CN(c2nc(N)c(C(=O)NC(=N)NC)nc2Cl)CCN1C1CCN(C(=O)c2ccc(Cl)cc2)CC1 quantity_kind=IC50 reading="< 25 nM"
molecule=CC[C@H]1CN(c2nc(N)c(C(=O)NCCO)nc2Cl)CCN1C1CCN(C(=O)c2ccc(CS(C)(=O)=O)cc2)CC1 quantity_kind=IC50 reading="> 100 nM"
molecule=CCNC(=O)Nc1cc(Cl)ccc1CN1CCC(N2CCN(c3nc(N)c(C(=O)NCCO)nc3Cl)C[C@@H]2CC)CC1 quantity_kind=IC50 reading="< 25 nM"
molecule=CC[C@H]1CN(c2nc(N)c(C(=O)NCC(N)=O)nc2Cl)CCN1C1CCN(Cc2ccc(Cl)cc2)CC1 quantity_kind=IC50 reading="25 to 100 nM"
molecule=CC[C@H]1CN(c2nc(N)c(C(N)=O)nc2Cl)CCN1C1CCN([C@@H](C(=O)NC2CC2)c2ccc(Cl)cc2)CC1 quantity_kind=IC50 reading="> 100 nM"
